Data provenance is ChEMBL document CHEMBL1143255.

- target: Kappa-type opioid receptor (Homo sapiens, UniProt P41145)
- Sequence (P41145 whole entry): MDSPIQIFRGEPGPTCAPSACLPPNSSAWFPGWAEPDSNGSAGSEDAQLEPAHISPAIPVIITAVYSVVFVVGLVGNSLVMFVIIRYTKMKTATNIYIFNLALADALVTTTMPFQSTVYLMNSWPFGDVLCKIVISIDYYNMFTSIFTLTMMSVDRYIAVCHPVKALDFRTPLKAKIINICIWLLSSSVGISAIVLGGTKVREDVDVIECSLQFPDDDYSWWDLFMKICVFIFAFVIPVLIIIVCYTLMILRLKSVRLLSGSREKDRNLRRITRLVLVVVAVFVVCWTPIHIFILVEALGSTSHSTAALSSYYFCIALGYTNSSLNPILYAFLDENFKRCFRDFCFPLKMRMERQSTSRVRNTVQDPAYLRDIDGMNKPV
experimental_readout: Ki (nM)
Answer in nM, number only, no unit symbol.

Here is how some molecules turned out for Ki.
molecule: COC(=O)[C@@H]1C[C@H](OC2CCCCO2)C(=O)[C@H]2[C@@]1(C)CC[C@H]1C(=O)O[C@H](c3ccoc3)C[C@]21C (stereo partly specified)
Ki [nM]: 4
--
molecule: COC(=O)[C@@H]1C[C@H](OCOC(C)C)C(=O)[C@H]2[C@@]1(C)CC[C@H]1C(=O)O[C@H](c3ccoc3)C[C@]21C [SALVINORIN B ISOPROPOXYMETHYL ETHER]
Ki [nM]: 1.6

Task: Test system Kappa-type opioid receptor (Homo sapiens, UniProt P41145); read-out Ki; what value for CCCCOCO[C@H]1C[C@@H](C(=O)OC)[C@]2(C)CC[C@H]3C(=O)O[C@H](c4ccoc4)C[C@]3(C)[C@H]2C1=O [SALVINORIN B BUTOXYMETHYL ETHER] ?
Output: 5.3

Task: What measured Ki is associated with CCOCO[C@H]1C[C@@H](C(=O)OC)[C@]2(C)CC[C@H]3C(=O)O[C@H](c4ccoc4)C[C@]3(C)[C@H]2C1=O [SALVINORIN B ETHOXYMETHYL ETHER] on Kappa-type opioid receptor (Homo sapiens, UniProt P41145)?
Output: 0.32

Task: Param readout= Ki; system= Kappa-type opioid receptor (Homo sapiens, UniProt P41145); entry= `COC(=O)[C@@H]1C[C@H](OCOCCF)C(=O)[C@H]2[C@@]1(C)CC[C@H]1C(=O)O[C@H](c3ccoc3)C[C@]21C` ; returns value.
Output: 1.9

Task: Request - read-out Ki | tested on Kappa-type opioid receptor (Homo sapiens, UniProt P41145) | molecule `COC(=O)[C@@H]1C[C@H](OCOCC(F)(F)F)C(=O)[C@H]2[C@@]1(C)CC[C@H]1C(=O)O[C@H](c3ccoc3)C[C@]21C`
Output: 31

Task: Ki of CCCOCO[C@H]1C[C@@H](C(=O)OC)[C@]2(C)CC[C@H]3C(=O)O[C@H](c4ccoc4)C[C@]3(C)[C@H]2C1=O [SALVINORIN B PROPOXYMETHYL ETHER] on Kappa-type opioid receptor (Homo sapiens, UniProt P41145)?
Output: 2.2

* * *

- target: Kappa-type opioid receptor (Homo sapiens, UniProt P41145)
# maps each entry to its pKi
The read-out pKi is expressed as -log10 of concentration in moles per litre.

Example results:
compound: COCCOCO[C@H]1C[C@@H](C(=O)OC)[C@]2(C)CC[C@H]3C(=O)O[C@H](c4ccoc4)C[C@]3(C)[C@H]2C1=O
quantitative_readout: 6.85
//
compound: COC(=O)[C@@H]1C[C@H](OCOC(C)(C)C)C(=O)[C@H]2[C@@]1(C)CC[C@H]1C(=O)O[C@H](c3ccoc3)C[C@]21C
quantitative_readout: 7.46
//
compound: COC(=O)[C@@H]1C[C@H](OCSC)C(=O)[C@H]2[C@@]1(C)CC[C@H]1C(=O)O[C@H](c3ccoc3)C[C@]21C [SALVINORIN B METHYLTHIOMETHYL ETHER]
quantitative_readout: 7.89

// moving on: another record for pKi
Task: # pKi lookup, item `COC(=O)[C@@H]1C[C@H](OC(C)(C)OC)C(=O)[C@H]2[C@@]1(C)CC[C@H]1C(=O)O[C@H](c3ccoc3)C[C@]21C`
Output: 7.14
